# Experimental details: label from the status in PepcDB records

- Macromolecule sequence: "NTITVSELLELIKKEDVIIVDTRSPREFKEETLPGAINIPLFLDDEHALIGKTYKQESREKAIEIATDIVEKSLKRILNEAKKLDRDKLIVVFCARGGMRSQTMALILQLLGFKVKRLIGGFKAFKHA"
  protein production: "not failed"
- Macromolecule sequence: "VAGKVEARKAALREKLIDLAEAQIEAEGLASLRARELARQADCAVGAIYTHFQDLNALTLEVNGRTFARLGAAVGAVVADGQDDHPNERLIAMSHAYLAFAREHPKLWRALFDVEMRSDGPVPQWYGHAMAQLFSYITTPLAKIFPESDDAELDLMTRTLFSSVHGIVLLGLENRISGVPGEQLKTMIRLLLEQVGR"
  protein production: "not failed"
- Macromolecule sequence: "MASHELDYRILGESMQTVEIELDPGETVIAEAGAMNYMTGDIRFTARMGDGSDGSLLGKLWSAGKRKLGGESVFMTHFTNEGQGKQHVAFAAPYPGSVVAVDLDDVGGRLFCQKDSFLCAAYGTRVGIAFTKRLGAGFFGGEGFILQKLEGDGLVFVHAGGTLIRRQLNGETLRVDTGCLVAFTDGIDYDVQLAGGLKSMLFGGEGLLLTTLKGSGTVWLQSLPFSRLAGRIYDATFRAREEVRTNNG"
  protein production: "not failed"

* * *

# Experimental details: label from the status in PepcDB records
Value kind: protein production

- Macromolecule sequence: "MNKERNIIIAKNIRKFLNDSNMSQKKLAELINIKPSTLSDYLNLRSNPSHGVIQRIADVFEVGKSDIDTTYKDDNDITSIYNKLTPPRQENVLNYANEQLEEQNSKGDNVVDINSYKQEKTPVNVNGCVSAGVGERLHDETLFTEMVKGPIPTHDLALKVNGDSMEPMFKDGEIIFVEKTHNIKNGQIGIFIIEEEAYVKKVFVEDDRLTLVSLNKDYDDLHFYRNESVRLIGKVIL"
  Experimental value: "failed"
- Macromolecule sequence: "MDLSGVKKKSLLGVKENNKKSSTRAPSPTKRKDRSDEKSKDRSKDKGATKESSEKDRGRDKTRKRRSASSGSSSTRSRSSSTSSSGSSTSTGSSSGSSSSSASSRSGSSSTSRSSSSSSSSGSPSPSRRRHDNRRRSRSKSKPPKRDEKERKRRTLSPKPTKVHIGRLTRNVTKDHIMEIFSTYGKIKMIDMPVERMHPHLSKGYAYVEFENPDEAEXALKHMDGGQLMARDHCYCCVGTLASATTSRFSPPRRMLPPPPCGVGHPHG"
  Experimental value: "not failed"
- Macromolecule sequence: "MMQSRRVQESLVGLVILAGLATLGVGLLWLRGNLAGANSYTLEVELDTAPGLAVGTQVRYRGVQVGRVTAIGFDANGVQVSVRINNVLIPRRAVPEIRQSGFIGQAFLDFTPKERVPEIPEGVTAFAPKCQPELVYCNGDRVTGVRTASLEDLVRAATRFTTALEESGLINNANTLILGATRIVNRADQSLTKVTTALDSFNALSNQARAELRNFGIAAQAVTRAANQISEIVEVNRNTINSSLRNIDSAARELRTTLKALHPLTNQLEQGELLANLDALIKNGAEAAANLNKVSGALSSPLIMLSIAQTLDAARATFINAQKLTNDLLKLTSDPSFQSDLRRLIQILRRLLASSQDLEQQFLALHATSLGEAHEPMPAISAPTAAAKPTKEEEPEP"
  Experimental value: "failed"
- Macromolecule sequence: "FDFKAGEEVLARWTDCRYYPAKIEAINKEGTFTVQFYDGVIRCLKRMHIKAMPEDAKGQDWIALVKA"
  Experimental value: "not failed"
